Each item that follows carries a reported growth.
# Test system: NCI-H322M lung
# assayNotes: NCI-60 one-dose screen, 48 h (100 = growth as untreated, 0 = no growth, -100 = all killed)
# appliedConditions: 10 µM
Compounds without any hit were thinned out: in the full panel of roughly 83,000, 20% have a hit.
Number in %, nothing else.

Would you mind telling me what growth value was observed for CCOC(=O)C(=O)C=P(c1ccccc1)(c1ccccc1)c1ccccc1 ?
98.2

Next molecule up: OCc1ccc(-c2ccc(-c3ccc(CO)s3)o2)s1
55.3

Now give it for Sc1ccc(Nc2c3ccccc3nc3ccccc23)cc1 too.
74.6

Entry to check: CCN(CC)CCNc1ccc(CO)c2sc3ccccc3c(=O)c12
50.9

Please give the result for CC1(C)N=C(N)N=C(N)N1c1cccc(Br)c1 too.
46.9

Input COc1ccc(NC(=O)CCl)cc1
99.1

Could you do the same for Cc1cc(C(O)(c2ccc(Nc3ccccc3)cc2)c2ccc(Nc3ccc(S(=O)(=O)O)cc3)cc2)ccc1N (stereo not drawn) , please?
25

What about O=C(O)CCCC(=O)O ?
98.9

====

# Test system: CAKI-1 renal
# assayNotes: NCI-60 one-dose screen, 48 h (100 = growth as untreated, 0 = no growth, -100 = all killed)
# appliedConditions: 10 µM
About 83,000 compounds went through this panel and 20% of them were active in at least one assay; those are over-represented in the sample as a whole.
Assign Fulfilled whenever growth does not fall below 90%; assign Not fulfilled whenever it does.

Examples from the recorded data:
1. Cc1cc(OCCO)cc(C)c1Cl | Fulfilled
2. CN(C)c1ccc(C(c2ccc(O)cc2)c2ccc(N(C)C)cc2)cc1 | Fulfilled
3. c1cc[n+](C2c3ccccc3C([n+]3ccccc3)c3ccccc32)cc1 (stereo unspecified) | Not fulfilled

Let's switch to this molecule now.
State whether the measured growth reaches 90%, counting equality as reaching it, for C[C@@H](c1ccccc1)[C@@H](C(=O)O)c1ccccc1
Fulfilled

====

# Tested on: 786-0 renal
# assayNotes: NCI-60 one-dose screen, 48 h (100 = growth as untreated, 0 = no growth, -100 = all killed)
# appliedConditions: 10 µM
About 83,000 compounds went through this panel and 20% of them were active in at least one assay; those are over-represented in the sample as a whole.
# Lookup of reported growth keyed by entry
// units = %; emit number, no label

1. CCCCC(=O)c1ccc(OC)cc1 | 96.2
2. CC1(C)N=C(N)N=C(N)N1c1ccc(Cl)cc1 | 17.7
3. c1cc[n+](C2c3ccccc3C([n+]3ccccc3)c3ccccc32)cc1 (configuration not stated) | 50

Which growth reading was recorded for the molecule Nc1ccc(C(=O)c2ccc(N)c(Br)c2)cc1Br ?
34

And the next one, S=C(Nc1ccccc1)N1CCCCC1 ?
102

Another molecule to look at: CCC(=O)Oc1ccc(OC)cc1
105

Moving on to the next molecule: O=C(c1ccccc1)C1CCC1
107

====

# growth per record follows
# Test system: NCI-H226 lung
# assayNotes: NCI-60 one-dose screen, 48 h (100 = growth as untreated, 0 = no growth, -100 = all killed)
# appliedConditions: 10 µM
# Description: Growth inhibition of the NCI-H226 human Non-Small Cell Lung tumor cell line is measured as a screen for anti-cancer activity. Cells are grown in 96 well plates and exposed to the test compound for 48 hours. Compounds are tested at a single concentration, which is 10^-5 M for most compounds. The reported endpoint is percent growth (GI% or GIPRCNT), where numbers from 0 - 100% represent growth inhibition, and numbers from -100% - 0 represent cell death. […]
About 83,000 compounds went through this panel and 20% of them were active in at least one assay; those are over-represented in the sample as a whole. The source made the active and inactive calls. How the source made its calls: active means growth percent below 10; inactive means the rest.

Known growth results, listed for orientation:
1. C/C(=C\c1cc(Cl)ccc1OCC(=O)O)[N+](=O)[O-] | 108% (inactive)
2. CC1(C)Nc2cccc3c(N=Nc4ccc(N=Nc5ccccc5)c5ccccc45)ccc(c23)N1 | 94% (inactive)
3. CCC/C=C(/C(C)=O)C(=O)OCC | 95.7% (inactive)

growth lookup needed for CN(C)c1ccc2nc3ccc(=N)cc-3sc2c1 , thanks.
77.1% (inactive)

Next entry: CC1(C)OC(=O)C(c2ccsc2)C(=O)O1
105% (inactive)
